System: XIP peptide (Xip251-270) binding
Method description: small-molecule binders of XIP peptide, primary screen, biochemical, small-molecule microarray, fluorescence 635/667 nm, 0.1 µg/mL protein (AID 1182)
Condition description: fluorescent protein binding, 635 nm, higher = more signal, called active from +8 up or from −8 down
Measurement name: composite z-score
// keep it numeric: no unit symbol after the value

| Compound | Measurement name | Number |
| --- | --- | --- |
| NCCCCCNC(=O)[C@H]1C[C@H]2C(=O)NCC(=O)N2[C@H]1c1cccc(OCCO)c1 | composite z-score | 0.228 |

# input compound: CC(C)NC(=O)[C@@H]1c2ccccc2C(=O)N(Cc2ccccc2)[C@H]1c1ccc(CO)cc1 ; wanted: its composite z-score 0.747

Likewise for COCCOC(=O)N1C(=O)[C@@]2(c3cc(C#CCNC(N)=O)ccc31)[C@H](C(=O)N1CCN(c3ncccn3)CC1)[C@H]1C(=O)O[C@H](c3ccccc3)[C@H](c3ccccc3)N1[C@@H]2c1ccccc1OCCO ? 1.56

Likewise for COc1ccc(CCNC(=O)[C@@]2(Sc3ccc(C)cc3)CC(=O)N(Cc3ccccc3Cl)[C@@H]2c2ccc(CO)cc2I)cc1 ? 0.259

Likewise for CCCN1C(=O)[C@@]2(CCC(=O)OC(C)(C)C)N=C(c3ccc(OCCCO)cc3)O[C@H]2c2ccccc21 ? 0.317

Likewise for CC(=O)NCCCC[C@@H]1NC(=O)[C@H]2C[C@@H](C(=O)NCCCCCC[N+](C)(C)C)[C@@H](c3cccc(OCCO)c3)N2C1=O ? 1.87

Likewise for C=CCN1C(=O)[C@]2(O[C@H](CCO)[C@@H]([Si](C)(C)c3ccc(OC)cc3)[C@@H]2C)c2cc(NC(=O)[C@H](C)O)ccc21 ? 1.46

Likewise for O=c1cccc(CCc2ccccc2)o1 ? 0.223

----------
Method description: small-molecule microarray binders of probe aLefty2, primary screen, biochemical, biotinylated probe, 635/667 nm fluorescence (AID 1094);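 further: score merges spot fluorescence near 667 nm with spot signal-to-noise ratio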
Condition description: higher = more signal
Where composite z-score equals or exceeds -0.04, the correct label is 1 (yes); where it does not, the label is 0 (no).

| Compound | Assigned class |
| --- | --- |
| CCOC(=O)C[C@H]1[C@H](OC(=O)c2ccc(-c3ccccc3)cc2)[C@@H](NC(=O)c2ccc3ccccc3c2)c2cc(OCCCO)ccc2N1C(=O)Cc1ccc(OC)cc1 | 0 (no) |

Turning now to a further record.
Reported composite z-score reaches at least -0.04 for COc1ccc([Si](C)(C)[C@@H]2[C@@H](CC(=O)N(CCO)Cc3ccccc3)O[C@]3(C(=O)N(C)c4ccccc43)[C@H]2C)cc1 ? 1 (yes)

----------
Method description: E. coli acrAB mutant growth effects, primary screen, E. coli filamentation inducers, strain DRC39, OD650, 24 h (AID 1178);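 further: growth measured as culture turbidity by optical density at 650 nm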
Condition description: higher = more signal, called active from +8 up or from −8 down
Where z-score equals or exceeds -0.1, the correct label is satisfied; where it does not, the label is not satisfied.

Reported z-score reaches at least -0.1 for C=C(COC)/C(=C/C[C@H](OC(=O)c1ccncc1)c1cccc(OCCO)c1)c1cc(C(=O)OC)ccc1OC ? satisfied

Likewise for [N-]=[N+]=NCc1ccccc1[C@@H]1OC(c2ccc(OCCCO)cc2)=N[C@]1(Cc1ccccc1N=[N+]=[N-])C(=O)NCc1ccccc1 ? not satisfied

Likewise for COCCOC(=O)N1C(=O)[C@@]2(c3cc(C#CCCO)ccc31)[C@H](C(=O)NC[C@H](O)c1ccccc1)[C@H]1C(=O)O[C@H](c3ccccc3)[C@H](c3ccccc3)N1[C@@H]2c1ccc(O)cc1 ? satisfied
